Assay: Pharmacokinetic evaluation of compounds in SD rats
Format: in vivo, Sprague Dawley rats
Conditions: male, Sprague-Dawley, rat, plasma, single intravenous injection and oral administration, read-out: Half-life T1/2 (converted)
Procedure: Experimental objective: The pharmacokinetics of test compounds in SD rats. Sprague Dawley rats (male, 200-300 g, 7-9 weeks old, Shanghai Slack). The pharmacokinetic characteristics of rodents after intravenous and oral administration of the compounds were tested according to the standard protocol, in the experiment, the candidate compound was formulated into a clear solution, and the rats were given single intravenous injection and oral administration. […]

- Compound: "Cn1cnc2c1c(=O)n(CC1CCC(O)(C(F)(F)F)CC1)c(=O)n2C (single isomer, unassigned) [Embodiment 12 isomer 2]"
  half-life, h: 1.6
- Compound: "CCC(O)(CC)CCCCn1c(=O)c2c(ncn2C)n(C)c1=O [Embodiment 2]"
  half-life, h: 0.481
- Compound: "Cn1c(=O)n(CC2CCC(O)(C(F)(F)F)CC2)c(=O)c2c1ncn2CC(F)(F)F (single isomer, unassigned) [Embodiment 45 isomer 2]"
  half-life, h: 6.19
